Values compiled from the supplement of paper PMC10567573.

methodNotes: protein stability index of a GFP-peptide fusion (GPS, HEK-293T) (PSI 1-6); higher = more stable;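 also: 24-mer peptide tiles fused after GFP, lentivirally expressed, FACS-sorted into six equal bins by GFP/DsRed ratio, decoded by Illumina sequencing, PSI is the read-weighted mean bin number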
measurementConditions: treatment: MLN4924 1 uM, 8 h; c terminus: a fixed tail appended
attributeMeasured: protein stability index
Quick one: just the number, no unit, thanks!

Query: Which protein stability index value is on record for EYHQPQAPANVAKIQLRLAGQKRK [LOXL2] ?
Response: 4.54

Query: Which protein stability index value is on record for KLKNLRRKQRRRERWLQKQGKYSG [RNF180] ?
Response: 3.93

Query: Which protein stability index value is on record for RVRPTFQEITSETEDLCEKPDDEV [RIPK4] ?
Response: 5.49

Query: Which protein stability index value is on record for ASSQHSEGSRSSGSNRSGSDRRKE [DVL3] ?
Response: 5.52

Query: Which protein stability index value is on record for VLGGNLQGGELVVAYPYDLVRSPW [CPXM2] ?
Response: 2.48

Query: Which protein stability index value is on record for VGSVSVDCGPSRADRCSPKEDQAW [FBXO34] ?
Response: 4.06

Query: Which protein stability index value is on record for STQEPQSPREGEELKPEDKDPRDP [GNAS] ?
Response: 5.42

Query: Which protein stability index value is on record for QLDKNSEVYQEVQAMFDTLGIPKS [FAM98B] ?
Response: 3.66

Query: Which protein stability index value is on record for GQRLAVCVPAHPPPCAWACPVPAH [CTBP1-DT] ?
Response: 2.8

Query: Which protein stability index value is on record for DLSMKGGASTTSTTPSALSGEPPT [NOL4L] ?
Response: 5.28

Query: Which protein stability index value is on record for KVEQNSRPVSCSGRDALLDQIRQG [WASL] ?
Response: 3.96

Query: Which protein stability index value is on record for AVNAHQWLDNPERWNKVKMVVSRE [SEPHS2] ?
Response: 2.67

Query: Which protein stability index value is on record for REDSKEAEKSGEATDGARPQALPE [CHGA] ?
Response: 5.64

Query: Which protein stability index value is on record for GPMRPEQFSDEVEPATPEEGEPAT [GAGE1] ?
Response: 5.27

Query: Which protein stability index value is on record for NKHLTTHQGIKPYKCSWCGKSFSQ [ZNF75A] ?
Response: 2.06

Query: Which protein stability index value is on record for YPTSDQEGDPGSKQPRKKRGRYRQ [LCOR] ?
Response: 5.45

Query: Which protein stability index value is on record for SVGTYIIDLLTFLTGQKAVKVHGL [GFOD1] ?
Response: 3.32

Query: Which protein stability index value is on record for CLFSERDAAGAPRDASDPLAGAAL [SMAD6] ?
Response: 4.33

Query: Which protein stability index value is on record for IQLRRWQETRGELQCRSPPRLHGA [TBC1D10A] ?
Response: 2.85

---

methodNotes: protein stability index of a GFP-peptide fusion (GPS, HEK-293T) (PSI 1-6); higher = more stable
measurementConditions: treatment: DMSO; c terminus: a fixed tail appended
attributeMeasured: protein stability index
Quick one: just the number, no unit, thanks!

Query: Which protein stability index value is on record for QPAGNRRGQARRLAPNFRWAIPNR [BEX3] ?
Response: 3.89

Query: Which protein stability index value is on record for KAVANMQGEMDRKCKQVKEKCKEE [ZMYND11] ?
Response: 5.14

Query: Which protein stability index value is on record for HQLYTSSSHHSHSYIGLPYADHNY [KMT2E] ?
Response: 2.5

Query: Which protein stability index value is on record for SSVYKQQWFAMLRAEQDSEVGPQE [GMCL1] ?
Response: 4.08

Query: Which protein stability index value is on record for SSFPGSLPQETNLTLKVCKPQAPQ ?
Response: 4.09

Query: Which protein stability index value is on record for PARAGSEVEWTEDLALDLGPQSRE [C2CD2L] ?
Response: 5.24

Query: Which protein stability index value is on record for SEVESAVWYVKKFGRYLEHLEVKF [FBXO39] ?
Response: 2.44

Query: Which protein stability index value is on record for RRLKYFFMSPCDKFRAKGRKPCKL [MCOLN1] ?
Response: 2.38

Query: Which protein stability index value is on record for CQDSSGEVSCQCQLHPPRWYSRLQ ?
Response: 2.38

Query: Which protein stability index value is on record for ELEKIGSGEFGSVFKCVKRLDGCI [WEE1] ?
Response: 2.29

Query: Which protein stability index value is on record for CSVRPDASVSSHRFFGPNAEISQP [TCF25] ?
Response: 3.57

Query: Which protein stability index value is on record for DYPVQVAPLSNGLCCAFSTDGSVL [WSB1] ?
Response: 2.66

Query: Which protein stability index value is on record for HGDARATGREMHGKNWSKLCKDCQ [TPPP] ?
Response: 4.18

Query: Which protein stability index value is on record for TFDAITTIRGEVMFFKDRFYMRTN [MMP1] ?
Response: 2.25
